- system: His-Tau40P301L Tau (UniProt P10636-8 1-441)
- Sequence (P10636 other isoform, or with tags, fused parts or gaps limits assumed): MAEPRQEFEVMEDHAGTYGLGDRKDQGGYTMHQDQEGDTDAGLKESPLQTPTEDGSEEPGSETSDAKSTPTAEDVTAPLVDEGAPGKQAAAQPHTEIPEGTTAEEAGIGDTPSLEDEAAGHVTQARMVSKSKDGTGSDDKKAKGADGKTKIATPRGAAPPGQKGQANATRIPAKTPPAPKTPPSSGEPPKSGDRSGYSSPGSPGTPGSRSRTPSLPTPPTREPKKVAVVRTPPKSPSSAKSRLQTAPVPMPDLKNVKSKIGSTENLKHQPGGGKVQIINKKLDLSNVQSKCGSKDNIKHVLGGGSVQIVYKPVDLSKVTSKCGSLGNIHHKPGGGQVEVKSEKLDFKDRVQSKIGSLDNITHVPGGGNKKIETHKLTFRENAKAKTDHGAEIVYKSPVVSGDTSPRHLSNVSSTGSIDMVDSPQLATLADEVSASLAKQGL
- assay-details: cell-based or functional assay
# strict inequality: IC50 (µM), Tau40 assay (ThT) < 4 µM yields Condition met, everything else yields Condition not met

Worked examples, 2 binders total:
WEIRIRW : Condition not met
IWIRYWRW : Condition met

Here's an entry: FRIRIRW . Is its IC50 (µM), Tau40 assay (ThT) below 4 µM?
Condition met

Is IC50 (µM), Tau40 assay (ThT) of WRIRIRL strictly below 4 µM?
Condition met

Consider ERIWIRYW . Does its IC50 (µM), Tau40 assay (ThT) lie strictly below 4 µM?
Condition not met

Here's an entry: RIWIRVW . Is its IC50 (µM), Tau40 assay (ThT) below 4 µM?
Condition not met
